Reference for the values: patent US20240043427A1

# tgt: UniProtKB P21589
# Sequence (P21589 27-574): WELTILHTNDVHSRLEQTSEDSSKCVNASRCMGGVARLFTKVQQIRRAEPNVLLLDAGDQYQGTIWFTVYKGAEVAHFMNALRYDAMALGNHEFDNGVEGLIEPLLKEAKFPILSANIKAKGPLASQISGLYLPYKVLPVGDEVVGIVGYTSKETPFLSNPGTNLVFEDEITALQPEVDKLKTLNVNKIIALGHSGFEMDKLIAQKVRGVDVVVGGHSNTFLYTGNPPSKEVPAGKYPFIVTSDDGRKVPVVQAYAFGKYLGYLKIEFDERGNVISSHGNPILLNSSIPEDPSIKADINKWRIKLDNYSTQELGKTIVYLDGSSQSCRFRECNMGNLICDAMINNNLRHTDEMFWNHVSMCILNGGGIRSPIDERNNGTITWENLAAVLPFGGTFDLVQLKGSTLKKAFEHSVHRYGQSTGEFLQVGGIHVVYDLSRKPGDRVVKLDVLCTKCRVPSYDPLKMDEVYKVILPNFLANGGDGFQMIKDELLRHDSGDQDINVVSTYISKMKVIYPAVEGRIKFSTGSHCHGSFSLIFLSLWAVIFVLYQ
# protocol details: MDA-MB-231 Cell Based CD73 Activity Assay (DMEM)
# assay setup: MDA-MB-231-GFP cells, DMEM medium with 10% human plasma, 200 uM AMP
experimental endpoint: EC50 (nM)

Solved cases (2 shown):
| compound | experimental endpoint | value measured |
| --- | --- | --- |
| O=c1[nH]cc(-c2cc(N3CC(O)C4(CC4)C3)c3nccn3n2)c(=O)[nH]1 (centres unmarked) [Example 344] | EC50 | 97 |
| O=c1[nH]cc(-c2cc([C@H]3C[C@@H]3c3ccc4nc5n(c4c3)[C@H](C(F)(F)F)CC5)c3nccn3n2)c(=O)[nH]1 [Example 639] | EC50 | 0.58 |

I. N#Cc1ccc([C@H]2C[C@@H]2c2cc(-c3c[nH]c(=O)[nH]c3=O)nn3c(F)cnc23)cn1 (racemic) [Example 375]
II. O=C(Nc1ccc(F)cc1F)O[C@H]1CN(c2cc(-c3c[nH]c(=O)[nH]c3=O)nn3ccnc23)CC1(F)F [Example 235]
Prompt: Could you tell me which of I and II has the lower EC50 reading? Your answer should be the label attached to the chosen record.
Response: II
(II: 0.82 nM, I: 11.2 nM)

1. CC1(C)C(=O)N(CC(F)(F)F)c2cc([C@H]3C[C@@H]3c3cc(-c4c[nH]c(=O)[nH]c4=O)nn4c(F)cnc34)ccc21 [Example 702]
2. O=c1[nH]cc(-c2cc(N3CC(C45CC(C4)C5)C3)c3nccn3n2)c(=O)[nH]1 [Example 446]
Prompt: Could you tell me which of 1 and 2 has the lower EC50 reading? Your answer should be the label attached to the chosen record.
Response: 1

a. O=C(NCC(F)(F)F)O[C@H]1CN(c2cc(-c3c[nH]c(=O)[nH]c3=O)nn3ccnc23)CC1(F)F [Example 545]
b. O=c1[nH]cc(-c2cc([C@H]3C[C@@H]3c3cc4c(cn3)c(F)cn4CC(F)(F)F)c3nccn3n2)c(=O)[nH]1 [Example 392]
Prompt: Could you tell me which of a and b has the lower EC50 reading? Your answer should be the label attached to the chosen record.
Response: a
(a: 0.22 nM, b: 0.34 nM)

P. O=C1N(CC(F)(F)C(F)F)c2cc([C@H]3C[C@@H]3c3cc(-c4c[nH]c(=O)[nH]c4=O)nn4ccnc34)ccc2C12CC2 (racemic) [Example 736]
Q. O=c1[nH]cc(-c2cc([C@@H]3C[C@H]3c3cc(F)c(F)c(F)c3)c3nccn3n2)c(=O)[nH]1 (racemic) [Example 36]
Prompt: Compare the recorded EC50 of P and Q ; state which is larger. Your answer should be the label attached to the chosen record.
Response: Q
(Q: 2.53 nM, P: 0.21 nM)
